Test system: MOLT-4 leukemia
assay_summary: NCI-60 one-dose screen, 48 h (100 = growth as untreated, 0 = no growth, -100 = all killed)
measurement_context: 10 µM
About 83,000 compounds went through this panel and 20% of them were active in at least one assay; those are over-represented in the sample as a whole.
Rule: growth below 70% gives Yes, anything at or above gives No.

Q: # TODO verify growth < 70% strictly for this compound: C=C1C(=O)O[C@H]2[C@H]1CC/C(COC(=O)OCCCCCOC(=O)OC/C1=C/CC[C@@]3(C)O[C@H]3[C@H]3OC(=O)C(=C)[C@@H]3CC1)=C\CC[C@@]1(C)O[C@@H]21
Result: Yes

###

System: MDA-MB-231 breast
assay_summary: NCI-60 one-dose screen, 48 h (100 = growth as untreated, 0 = no growth, -100 = all killed)
measurement_context: 10 µM
About 83,000 compounds went through this panel and 20% of them were active in at least one assay; those are over-represented in the sample as a whole.
Recorded growth for the following compounds
Numeric answer only, unit % assumed.

Take a look at these entries with their results.
[
  {
    "compound": "COc1ccc(-c2nc(SCC(=O)c3ccc(Br)cc3)[nH]c(=O)c2C#N)cc1",
    "meas_value": 105
  },
  {
    "compound": "CCC(O)c1ccc(Br)cc1NC(=O)c1cccc(Cl)c1 (configuration not stated)",
    "meas_value": -1.69
  },
  {
    "compound": "CN(C)c1ccc2cc(-c3cc4c(oc3=O)-c3ccccc3OC4O)c(=O)oc2c1 (configuration not stated)",
    "meas_value": -39.8
  },
  {
    "compound": "CCOCC[P+](c1ccccc1)(c1ccccc1)c1ccccc1",
    "meas_value": 63.5
  },
  {
    "compound": "Brc1ccc(-c2cn3ccnc3c(-c3ccc(Br)cc3)n2)cc1",
    "meas_value": 46.5
  },
  {
    "compound": "N#Cc1cnc2ccc(NCc3cnc[nH]3)cc2c1Nc1ccc(F)c(Cl)c1",
    "meas_value": 78
  }
]

Q: Consider the compound Cc1cc(C)c2c(Nc3ncnc4c3sc3nc(C)cc(C)c34)n[nH]c2n1 and give its measured growth.
Result: 99.4

Q: What about COc1cccc(C(=O)NNc2nc(N3CCN(C4CCCCC4)CC3)nc(N3CCN(C(c4ccccc4)c4ccccc4)CC3)n2)c1 ?
Result: 57.2

Q: And Cc1ccc2c(c1)-c1cc(C)nn1-c1ccc(C#N)cc1O2 ?
Result: 61

Q: Repeat with CC(C)CCN(CCCNc1c2c(nc3cc(Cl)ccc13)CCCC2)CCC(C)C
Result: 21.8

Q: Likewise for COc1ccc(-c2nnc(N3CCN(C(=O)CN4CCN(c5ccc(Cl)cc5)CC4)CC3)nc2-c2ccc(OC)cc2)cc1 ?
Result: 78.7

Q: For COc1cc(/C=C/C(=O)c2cc(-c3ccc(C(F)(F)F)cc3)ccc2O)cc(OC)c1OC then?
Result: 61.3

Q: Try CC1=CSC2=NC(c3ccc(Cl)c(Cl)c3)=CC(c3ccc(Cl)cc3)N12 (configuration not stated) next.
Result: -44

Q: Also need Cc1ccc(-c2cc(C(=O)Nc3ccc(S(=O)(=O)N4CCCCC4)cc3)[nH]n2)c(O)c1 , thanks.
Result: 56.1

Q: Can you check CC(=O)c1c(O)cc2c3c1OC(C)(C)C1CCC(C)(CC31)O2 (configuration not stated) next?
Result: 106

Q: Would you mind doing C#Cc1ccc(-n2c(/C=C/c3cc(OC)c(OC)c(OC)c3)nc3ncccc3c2=O)cc1 as well?
Result: 58.6

Q: Now the same for O=C(c1ccccc1)C(Sc1ccccc1)c1ccccc1 (configuration not stated)
Result: 89.2

###

System: SF-295 CNS
assay_summary: NCI-60 one-dose screen, 48 h (100 = growth as untreated, 0 = no growth, -100 = all killed)
measurement_context: 10 µM
Compounds without any hit were thinned out: in the full panel of roughly 83,000, 20% have a hit.
Tag: yes (1) if measured growth is not below 90%, no (0) if it is.

Record excerpt, results attached:
[
  {
    "compound": "CC1(C)CCc2cc(-c3ccn(S(=O)(=O)c4ccc(Cl)cc4)n3)ccc2O1",
    "category": "no (0)"
  },
  {
    "compound": "COC(=O)[C@]12CC[C@@H](C)[C@H](C)[C@@H]1C1=CC[C@@H]3[C@@]4(C)CC(=O)[C@H](O)[C@@]5(C)COC(=C45)C[C@@]3(C)[C@]1(C)CC2",
    "category": "no (0)"
  },
  {
    "compound": "COc1ccc(-c2n/c(=C\\c3c(O)[nH]c4ccccc34)cc3c2=Nc2ccccc2-3)cc1",
    "category": "no (0)"
  },
  {
    "compound": "CCOc1ccc2c(c1)CC[C@@H]1[C@@H]2CC[C@]2(C)[C@@H](O)[C@@H](O)C[C@@H]12",
    "category": "yes (1)"
  },
  {
    "compound": "O=C(COc1ccc(Cl)cc1Cl)Oc1coc(CSc2nc3ccccc3s2)cc1=O",
    "category": "yes (1)"
  },
  {
    "compound": "Cc1ccc([P+](Cc2ccccc2)(c2ccccc2)c2ccccc2)cc1",
    "category": "no (0)"
  }
]

Q: Could you please find out whether COc1cccc(C(=O)N(c2ccc(F)c(F)c2)C(C(=O)NC(C)(C)C)c2cc3c(C)cc(C)cc3nc2Cl)c1 (centres undefined) has growth that meets 90% or exceeds it?
Result: no (0)

Q: Next entry: CC(=O)c1ccc(NCn2nc(-c3ccc(Cl)cc3)oc2=S)cc1
Result: yes (1)

###

Tested on: NCI-H226 lung
assay_summary: NCI-60 one-dose screen, 48 h (100 = growth as untreated, 0 = no growth, -100 = all killed)
measurement_context: 10 µM
The panel holds about 83,000 compounds, 20% with a hit somewhere; the sample as a whole holds those more often.
observation_type: growth (%)
Provide the reading as a plain figure in %.

These solved cases illustrate the format of a correct answer.
[
  {
    "compound": "CS(=O)(=O)Nc1ccc([N+](=O)[O-])cc1Oc1ccccc1",
    "growth [%]": 96
  },
  {
    "compound": "COc1cccc(-c2nnc(COc3ccc(-c4nc5ccc(C)cc5[nH]4)cc3OC)o2)c1",
    "growth [%]": 84.6
  },
  {
    "compound": "C=CCNCCCN1C(=O)c2ccc3c4c(ccc(c24)C1=O)C(=O)N(CCCNCC=C)C3=O",
    "growth [%]": -30.8
  },
  {
    "compound": "C=CCn1ccc(=O)nc1SC",
    "growth [%]": 112
  }
]

Q: Field request: growth | item: N/C(=N\O)c1cn(C2OC(CO)C(O)C2O)c2ncnc(N)c12 (stereo unspecified)
Result: 26.4

Q: Param item: CCCCCC(CCC)COC(=O)c1ccc(OC)cc1 (stereo unspecified)
Result: 88.6

###

System: A498 renal
assay_summary: NCI-60 one-dose screen, 48 h
measurement_context: 10 µM
Compounds without any hit were thinned out: in the full panel of roughly 83,000, 20% have a hit. Activity calls are given as the source filed them. The calls were made as follows: active = growth percent below 10; inactive = the rest.
Respond with a class label; see active, inactive

Use these answered entries as a reference point.
[
  {
    "compound": "Cc1[nH]nc2c(=S)[nH]c(=O)[nH]c12",
    "category": "inactive"
  },
  {
    "compound": "COc1ccc(-c2nc(SCC(=O)c3ccc(Br)cc3)[nH]c(=O)c2C#N)cc1",
    "category": "inactive"
  },
  {
    "compound": "CC1(C)CC(=O)c2c(nc3ccc(Cl)cc3c2-c2ccccc2)C1",
    "category": "inactive"
  }
]

Q: Which outcome did this test record for the compound O=C(N/N=C/c1ccccc1O)c1ccccc1 ?
Result: inactive

Q: Then COc1cccc(C(=O)NNc2nc(N3CCOCC3)nc(N3CCN(C(c4ccccc4)c4ccccc4)CC3)n2)c1 ?
Result: inactive

Q: Now consider COc1ccc(-c2nc(-c3ccccc3)c(-c3ccccc3)[nH]2)cc1OC1CCCC1 and answer again.
Result: active

Q: Check Cn1c([N+](=O)[O-])cnc1/C=C1\Oc2ccc(Br)cc2C1=O too.
Result: active

Q: Proceed to Cc1ccc(S(=O)(=O)N2CCc3ccccc3CC2)cc1
Result: inactive

Q: Another compound to look at: C[C@]12CC[C@H]3[C@@H](CCC4=CC(=O)CC[C@@]43C)[C@@H]1CC[C@@H]2c1csc(N)n1
Result: inactive

Q: Also FC(F)(F)c1ccc(-c2cnc(Br)nc2NC2CCCCCC2)cc1 , if possible.
Result: inactive

Q: Now try CC(C)(C)CC(C)(C)c1ccc(O)c(Cc2ccc(Cl)cc2Cl)c1 .
Result: active

Q: Ok, now Cc1ccc2c3c(cccc13)-c1ccccc1C2=O
Result: inactive

Q: Could you do the same for COc1ccc(-c2ccc(-c3ccc(C(=N)N)c(F)c3)s2)cc1 , please?
Result: active

Q: Item: NC(=O)C12C(=O)NC(=O)C1(C(=O)O)C21CCCC1 (stereo unspecified)
Result: inactive

Q: Then what about the compound COc1cc(-c2cc(-c3cc(OC)c(OC)c(OC)c3)nc3nc(N)[nH]c(=O)c23)ccc1Oc1ccnc2cc(Cl)ccc12 ?
Result: inactive

Q: # repeat for C=C1C(=O)O[C@H]2[C@H]1CC/C(COC(=O)OCCCCCOC(=O)OC/C1=C/CC[C@@]3(C)O[C@H]3[C@H]3OC(=O)C(=C)[C@@H]3CC1)=C\CC[C@@]1(C)O[C@@H]21
Result: active

Q: Input Oc1ccc(/C=N\Nc2ccccn2)c(O)c1
Result: inactive

Q: Field entry: CCCOCC(O)CNCCN (stereo unspecified)
Result: inactive

Q: Then Cc1nnc2c3nnc(-c4ccc(Cl)cc4)n3c3ccccc3n12 ?
Result: inactive

Origin of measurements: PubChem BioAssay (NCI)
